test system: barley, winter (winter barley, Hordeum vulgare); test: Test D controlled growth environment herbicide test, pre- and postemergence; format: in vivo; settings: Preemergence, 250 g ai/ha; scale 0 to 100 (0 no effect, 100 complete control)
# Plant response rating, Barley, Winter annotations

# count of solved cases: 5
In [3]: df
Out[3]:
                  compound_structure_string                             tested_target  measured_result
0       Cc1ccc2ccccc2c1-c1c(O)c(C)nn(C)c1=O  barley, winter (winter barley, Hordeum vulgare)               45
1  COC(=O)Oc1c(C)nn(C)c(=O)c1-c1c(C)sc2c(C)cc(C)cc12  barley, winter (winter barley, Hordeum vulgare)               45
2  Cc1cc(C)c2sc(C)c(-c3c(OC(=O)OC(C)C)c(C)nn(C)c3=O)c2c1  barley, winter (winter barley, Hordeum vulgare)                0
3  CCOC(=O)Oc1c(C)nn(C)c(=O)c1-c1c(C)sc2c(C)cc(C)cc12  barley, winter (winter barley, Hordeum vulgare)               40
4  Cc1cc(C)c2sc(C)c(-c3c(OC(=O)OCCCl)c(C)nn(C)c3=O)c2c1  barley, winter (winter barley, Hordeum vulgare)               15

Then this molecule:
Ask: Give recorded Plant response rating, Barley, Winter. CC(=O)Oc1c(C)nn(C)c(=O)c1-c1ccc(F)c2ccccc12
Reply: 30

----------
In this section we review reported Barnyardgrass plant response rating values for a set of compounds.
tested on: barnyardgrass (Echinochloa crus-galli); experiment: Test C greenhouse herbicide test, pre- and postemergence; format: in vivo; settings: Postemergence, 31 g ai/ha; 0 to 100 scale (0 no effect, 100 complete control)
Respond using a number only.

Ask: Using the record for COc1nn(C)c(=O)c(-c2c(C)ccc3ccccc23)c1O [Compound 54] , state its measured Barnyardgrass plant response rating.
Reply: 15

Ask: Note down Barnyardgrass plant response rating recorded for Cc1ccc(-c2c(O)c(Br)nn(C)c2=O)c2ccccc12 [Compound 52]
Reply: 5

Ask: For the compound COc1nn(C)c(=O)c(-c2c(C)sc3ccccc23)c1O [Compound 33] , give its measured Barnyardgrass plant response rating value.
Reply: 25

Ask: Note down Barnyardgrass plant response rating recorded for Cc1cc(C)c2sc(C)c(-c3c(OC(=O)OC(C)C)c(C)nn(C)c3=O)c2c1 [Compound 67]
Reply: 25

Ask: Could you please provide reported Barnyardgrass plant response rating for CC(=O)Oc1c(C)nn(C)c(=O)c1-c1c(C)oc2c(C)cc(C)cc12 [Compound 16] ? Thanks!
Reply: 5

----------
system: ragweed (common ragweed, Ambrosia elatior); assay: Test C greenhouse herbicide test, pre- and postemergence; type: in vivo; conditions: Preemergence, 31 g ai/ha; scale 0 to 100, 0 is no effect, 100 is complete control
observation type: Plant response rating, Ragweed
Give only the figure.

Look over these answered cases.
                  compound_structure_string  measured_result
0       Cc1ccc2ccccc2c1-c1c(O)c(C)nn(C)c1=O               90
1  CC(=O)Oc1c(C)nn(C)c(=O)c1-c1c(C)sc2ccc(C)cc12               80
2  Cc1cc(C)c2sc(C)c(-c3c(OC(=O)OCCCl)c(C)nn(C)c3=O)c2c1               80

Ask: For ragweed (common ragweed, Ambrosia elatior), give the measured Plant response rating, Ragweed of the entry CCOC(=O)Oc1c(C)nn(C)c(=O)c1-c1c(C)sc2c(C)cc(C)cc12
Reply: 85

Ask: State recorded Plant response rating, Ragweed with ragweed (common ragweed, Ambrosia elatior), entry Cc1cc(C)c2ccccc2c1-c1c(OS(C)(=O)=O)c(C)nn(C)c1=O , no comment.
Reply: 80

----------
tested on: foxtail, giant (giant foxtail, Setaria faberii); assay: Test A greenhouse herbicide test, pre- and postemergence; assay type: in vivo; conditions: Preemergence, 125 g ai/ha; 0 to 100 scale where 0 is no effect and 100 is complete control
observation type: Foxtail, Giant plant response rating
// print number alone

Please review the following examples before continuing.
                                   molecule  measured_result
0  CCOC(=O)Oc1c(C)nn(C)c(=O)c1-c1c(C)ccc2ccccc12 [Compound 73]               90
1  Cc1nn(C)c(=O)c(-c2cccc3ccc(C#N)cc23)c1O [Compound 127]               50
2  COC(=O)Oc1c(Br)nn(C)c(=O)c1-c1c(C)ccc2ccccc12 [Compound 137]               90
3  CCc1nn(C)c(=O)c(-c2c(C)oc3ccccc23)c1O [Compound 117]                0
4  Cc1nn(C)c(=O)c(-c2c(C)sc3ccc(Cl)cc23)c1O [Compound 104]               70

Ask: Provide measured Foxtail, Giant plant response rating value, entry: Cc1ccc(-c2c(O)c(Br)nn(C)c2=O)c2ccccc12 [Compound 52]
Reply: 40

Ask: Hello, please tell me recorded Foxtail, Giant plant response rating for this one: CCc1ccc2ccc(C)cc2c1-c1c(O)c(C)nn(C)c1=O [Compound 103]
Reply: 80

Ask: # return recorded Foxtail, Giant plant response rating for input Cc1cc(C)c2c(-c3c(OC(=O)C(C)(C)C)c(C)nn(C)c3=O)c(C)sc2c1 [Compound 45]
Reply: 0

Ask: Recall and state the measured Foxtail, Giant plant response rating for CCC(=O)Oc1c(Cl)nn(C)c(=O)c1-c1c(C)sc2ccc(Cl)cc12 [Compound 111] .
Reply: 80

----------
tested on: deadnettle (henbit deadnettle, Lamium amplexicaule); test: Test D controlled growth environment herbicide test, pre- and postemergence; format: in vivo; conditions: Postemergence, 125 g ai/ha; visual rating on scale 0 (no effect) to 100 (complete control), 14 to 21 d
observation type: Plant response rating, Deadnettle
Form field (numeric): enter value without unit.

For orientation, consider the following solved cases.
>>> df
                                   molecule                   observation_type  measured_result
0  CC(=O)Oc1c(Br)nn(C)c(=O)c1-c1c(C)ccc2ccccc12 [Compound 129]  Plant response rating, Deadnettle               70
1  Cc1ccc2sc(C)c(-c3c(O)c(C)nn(C)c3=O)c2c1 [Compound 1]  Plant response rating, Deadnettle               35

Ask: Item CCC(=O)Oc1c(C)nn(C)c(=O)c1-c1c(C)sc2ccc(C)cc12 [Compound 42] : provide Plant response rating, Deadnettle
Reply: 35

Ask: Give the value of Plant response rating, Deadnettle reported for the following: Cc1ccc2ccccc2c1-c1c(O)c(C)nn(C)c1=O [Compound 59]
Reply: 90

Ask: Dear colleague, please send me the reported Plant response rating, Deadnettle for COc1nn(C)c(=O)c(-c2c(C)ccc3ccccc23)c1OC(=O)OC(C)C [Compound 36] when you can.
Reply: 100

Ask: Output measured Plant response rating, Deadnettle for this item: CCOC(=O)Oc1c(C)nn(C)c(=O)c1-c1c(C)sc2ccc(C)cc12 [Compound 82]
Reply: 25

----------
system: foxtail, giant (giant foxtail, Setaria faberii); experiment: Test E greenhouse herbicide test, pre- and postemergence; type: in vivo; details: Preemergence, 31 g ai/ha; scale 0 to 100, 0 no effect, 100 complete control
observation type: Plant response rating, Foxtail, Giant
# respond with the number and nothing more

>>> df
                  compound_structure_string  measured_result
0   Cc1ccc2sc(C)c(-c3c(O)c(C)nn(C)c3=O)c2c1               50
1  CCOC(=O)Oc1c(C)nn(C)c(=O)c1-c1c(C)sc2c(C)cc(C)cc12               95
2  CC(=O)Oc1c(C)nn(C)c(=O)c1-c1c(C)cc(C)c2ccccc12               75
3  CCC(=O)Oc1c(C)nn(C)c(=O)c1-c1c(C)sc2c(C)cc(C)cc12               85
4  CC(=O)Oc1c(C)nn(C)c(=O)c1-c1c(C)sc2ccc(C)cc12               80

From here, focus on the item given below.
Ask: Quote Plant response rating, Foxtail, Giant reported for CCOC(=O)Oc1c(C)nn(C)c(=O)c1-c1c(CC)ccc2ccccc12 please.
Reply: 65

----------
Entries and their measured Plant response rating, Canarygrass follow.
tested on: canarygrass (Phalaris minor); test: Test D controlled growth environment herbicide test, pre- and postemergence; type: in vivo; conditions: Postemergence, 125 g ai/ha; visual rating on scale 0 (no effect) to 100 (complete control), 14 to 21 d
Respond numerically, and do not add a unit to the figure.

Worked cases, Plant response rating, Canarygrass given:
>>> df
                  compound_structure_string                 tested_target                    observation_type  measured_result
0  CC(=O)Oc1c(C)nn(C)c(=O)c1-c1c(C)sc2ccc(C)cc12  canarygrass (Phalaris minor)  Plant response rating, Canarygrass               80
1       Cc1ccc2ccccc2c1-c1c(O)c(C)nn(C)c1=O  canarygrass (Phalaris minor)  Plant response rating, Canarygrass               90
2  CCOC(=O)Oc1c(C)nn(C)c(=O)c1-c1c(C)sc2c(C)cc(C)cc12  canarygrass (Phalaris minor)  Plant response rating, Canarygrass               80

# ---- query compound ----
Ask: Supply Plant response rating, Canarygrass measured with canarygrass (Phalaris minor) for COc1nn(C)c(=O)c(-c2c(C)ccc3ccccc23)c1O .
Reply: 65
